# Test target: CDK2/CycA2 (Homo sapiens (Human), UniProt P24941)
# Assay name: Radiometric protein kinase assay (33PanQinase), Assay Condition A (thiol containing)
# Measurement context: thiol containing (1.2 mM DTT), ATP 0.3 μM
pIC50: −log10 of the molar value.
Measured endpoint: pIC50

Answered cases to consult:
- Structure string: "CN(C)C/C=C/C(=O)Nc1ccc(C(=O)N2CCC[C@@H](Nc3ncc4ccccc4n3)C2)cc1"
  pIC50: "4.00 to 4.52"
- Structure string: "C=CC(=O)Nc1ccc(C(=O)N2CC[C@@H](Nc3ncc4ccc(F)cc4n3)C2)cc1"
  pIC50: "5.00 to 6.00"
- Structure string: "C=CC(=O)N1CCOc2cc(C(=O)N3CC[C@@H](Nc4ncc5ccccc5n4)C3)ccc21"
  pIC50: "6.00 to 7.00"
- Structure string: "CCC(=O)Nc1ccc(C(=O)N2CCC[C@@H](Nc3ncc4ccc(OC)cc4n3)C2)cc1"
  pIC50: "4.00 to 4.52"
- Structure string: "CN(C)C/C=C/C(=O)N1CCCc2cc(C(=O)N3CC[C@@H](Nc4ncc5ccccc5n4)C3)ccc21"
  pIC50: "5.00 to 6.00"
- Structure string: "C=CC(=O)Nc1ccc(C(=O)N2CC(Nc3ncc4ccccc4n3)C2)cc1"
  pIC50: "5.00 to 6.00"
- Structure string: "C=CC(=O)Nc1ccc(C(=O)N2CCC[C@@H](Nc3ncc4ccc(F)cc4n3)C2)cc1"
  pIC50: "4.00 to 4.52"

input: What value of pIC50 has been reported for the following compound? C=CC(=O)Nc1ccc(C(=O)N2CCC[C@@H](Nc3ncc4cc(C)ccc4n3)C2)cc1
output: 4.00 to 4.52

---

# Test target: CDK2/CycA2 (Homo sapiens (Human), UniProt P24941)
# Assay name: Radiometric protein kinase assay (33PanQinase), Assay Condition A (thiol containing)
# Measurement context: thiol containing (1.2 mM DTT), ATP 0.3 μM
# Protocol: The IC50 profile of test compounds was determined using three protein kinases. The compounds were provided as pre-weighed powders in vials. The compounds were dissolved to 1×10^−02M by adding DMSO. 100 μl of each of the resulting stock solutions were transferred into column 2 of four 96 well “master plates”. […] The reaction cocktails were incubated at 30° C. for 60 minutes. […] Incorporation of ^33Pi was determined with a microplate scintillation counter (Microbeta, Wallac). […]
pIC50: −log10 of the molar value.
Measured endpoint: pIC50

- Compound: "C=CC(=O)Nc1ccc(C(=O)N2CC[C@@H](Nc3ncc4ccc(C(=O)O)cc4n3)C2)cc1 [Example 38]"
  Measured endpoint: "pIC50"
  Result: "≥ 7.00"

Need pIC50 for each of these compounds.
1. C=CC(=O)Nc1ccc(C(=O)N2CC[C@@H](Nc3ncc4cc(Cl)ccc4n3)C2)cc1 [Example 25]
2. C=CC(=O)Nc1ccc(C(=O)N2CC[C@@H](Nc3ncc4ccc(=O)[nH]c4n3)C2)cc1 [Example 42]
3. COc1cc(C(=O)N2CC[C@@H](Nc3ncc4ccccc4n3)C2)ccc1NC(=O)/C=C/CN(C)C [Example 81]

output:
1. 6.00 to 7.00
2. 6.00 to 7.00
3. 5.00 to 6.00

---

# Test target: CDK2/CycA2 (Homo sapiens (Human), UniProt P24941)
# Assay name: Radiometric protein kinase assay (33PanQinase), Assay Condition A (thiol containing)
# Measurement context: thiol containing (1.2 mM DTT), ATP 0.3 μM
Measured endpoint: IC50

- Structure string: "C=CC(=O)Nc1ccc(C(=O)N2CCC[C@@H](Nc3ncc4ccc(OC)cc4n3)C2)cc1"
  IC50: "30 to 100 µM"
- Structure string: "CCC(=O)Nc1ccc(C(=O)N2CC[C@@H](Nc3ncc4ccc(C(=O)N(C)C)cc4n3)C2)cc1"
  IC50: "≤ 0.1 µM"
- Structure string: "CCC(=O)Nc1ccc(C(=O)N2CC[C@@H](Nc3ncc4cc(F)ccc4n3)C2)cc1"
  IC50: "1 to 10 µM"
- Structure string: "CCC(=O)Nc1ccc(C(=O)N2CCC[C@@H](Nc3ncc4ccc(=O)n(C(C)C)c4n3)C2)cc1"
  IC50: "10 to 30 µM"
- Structure string: "C=CC(=O)Nc1ccc(C(=O)N2CC[C@@H](Nc3ncc4ccccc4n3)C2)c(C)c1"
  IC50: "1 to 10 µM"
- Structure string: "CN(C)C/C=C/C(=O)N1CCOc2cc(C(=O)N3CC[C@@H](Nc4ncc5ccccc5n4)C3)ccc21"
  IC50: "1 to 10 µM"

Need IC50 for each of these compounds.
1. C=CC(=O)Nc1ccc(C(=O)N2CCC[C@@H](Nc3ncc4ccc(Cl)cc4n3)C2)cc1
2. CCC(=O)Nc1ccc(C(=O)N2CC[C@@H](Nc3ncc4ccc(C(=O)O)cc4n3)C2)cc1
3. CCC(=O)Nc1ccc(C(=O)N2CCC[C@@H](Nc3ncc4cc(Cl)ccc4n3)C2)cc1
4. C=CC(=O)Nc1ccc(C(=O)N2C[C@H](Nc3ncc4ccccc4n3)[C@@H](C)C2)cc1
5. C=CC(=O)Nc1ccc(C(=O)N2CC[C@@H](Nc3ncc4ccccc4n3)C2)cc1Cl
6. C=CC(=O)N(C)c1ccc(C(=O)N2CC[C@@H](Nc3ncc4ccccc4n3)C2)cc1
7. CN(C)C/C=C/C(=O)Nc1ccc(C(=O)N2CC[C@@H](Nc3ncc4ccccc4n3)C2)cc1
8. C=CC(=O)Nc1ccc(C(=O)N2CC[C@@H](Nc3ncc4ccc(C)cc4n3)C2)cc1

output:
1: 30 to 100 µM; 2: ≤ 0.1 µM; 3: 30 to 100 µM; 4: 30 to 100 µM; 5: 1 to 10 µM; 6: 1 to 10 µM; 7: 0.1 to 1 µM; 8: 0.1 to 1 µM

Need IC50 for each of these compounds.
1. C=CC(=O)Nc1ccc(C(=O)N2CCC[C@@H](Nc3ncc4ccc(C(N)=O)cc4n3)C2)cc1
2. C=CC(=O)Nc1ccc(C(=O)N2CC[C@@H](Nc3ncc4ccc(Cl)cc4n3)C2)cc1

output:
["1 to 10 µM", "0.1 to 1 µM"]
